# Tested on: existing sprouts on post-dormant potatoes with peeps and sprouts extant
# Experiment Summary: Comparison of thermofogged sprout suppressing chemicals for "burn" of existing sprouts (Example IV)
# Assay type: in vivo
# Parameters: key: +: indicates fair effectiveness; ++: indicates good effectiveness; +++: indicates excellent effectiveness; A minus (−) sign indicates no noticeable effect; a +/− sign indicates only partial effectiveness at a minimal level
# Setup Conditions: newly emerged sprouts and peeps, generally less than a month; thermofogged at comparable dosages

Compound: CCCCCCCCCO
Burn “new”: +++

Compound: CCCCCCO
Burn “new”: ++

Compound: CCCCCCCCCCCCO
Burn “new”: −

Compound: CCCCCCCCCCO
Burn “new”: ++

Compound: CCCCCOC(C)=O [AmylAcetate, reference compound]
Burn “new”: ++

Compound: CCCCCCCCO
Burn “new”: +++
